Provenance of the data: patent US20240254119A1

experiment: Caco-2 permeability assay; format: in vitro ADME; conditions: human, pH 7.4; Caco-2, apical to basolateral
assay.metric: Papp A→B at 2 h, 2 μM (×10⁻⁶ cm/s)
Give the value, in units of ×10⁻⁶ cm/s, as a plain number.

Req: Return reported Papp A→B at 2 h, 2 μM; argument: `Cc1ccc(-c2noc([C@H]3C[C@@H]3F)n2)cc1NC(=O)c1cnc2cc(COCC(C)(C)O)ccn12`
Resp: 6.65

====

Please go through the items and note down their MDCK-BCRP: Papp A-B.
biological target: BCRP (BCRP-MDCKII monolayer) (Homo sapiens); construct: host or cells: MDCKII (canine kidney) cells; assay: MDCKII-BCRP bidirectional transport assay; format: in vitro ADME; conditions: apical to basolateral
Sequence (Q9UNQ0 whole entry): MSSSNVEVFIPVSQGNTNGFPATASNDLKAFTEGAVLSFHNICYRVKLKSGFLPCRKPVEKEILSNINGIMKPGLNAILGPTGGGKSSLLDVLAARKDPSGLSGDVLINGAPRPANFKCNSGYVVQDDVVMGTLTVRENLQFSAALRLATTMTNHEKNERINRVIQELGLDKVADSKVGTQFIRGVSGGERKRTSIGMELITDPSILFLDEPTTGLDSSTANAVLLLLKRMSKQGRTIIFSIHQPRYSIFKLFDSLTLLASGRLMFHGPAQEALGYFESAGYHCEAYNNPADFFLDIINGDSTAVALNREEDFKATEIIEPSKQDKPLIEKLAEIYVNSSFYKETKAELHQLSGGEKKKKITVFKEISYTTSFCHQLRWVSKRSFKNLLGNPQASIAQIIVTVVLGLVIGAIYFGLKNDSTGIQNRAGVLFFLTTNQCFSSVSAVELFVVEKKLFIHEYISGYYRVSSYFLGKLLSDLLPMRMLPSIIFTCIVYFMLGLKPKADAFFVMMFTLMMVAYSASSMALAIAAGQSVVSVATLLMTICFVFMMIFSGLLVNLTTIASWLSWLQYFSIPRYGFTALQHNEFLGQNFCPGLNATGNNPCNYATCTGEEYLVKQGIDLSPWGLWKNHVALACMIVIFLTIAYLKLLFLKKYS

Req: Return reported MDCK-BCRP: Papp A-B; argument: `COC(=O)N1CC(c2nc(-c3ccc(C)c(NC(=O)c4cnn5cc(C#N)ccc45)c3)no2)C1`
Resp: 3.27 10^−6 cm/s

Req: Return reported MDCK-BCRP: Papp A-B; argument: `CCCS(=O)(=O)N1CC(c2nc(-c3ccc(Cl)c(NC(=O)c4cnc5ccccn45)c3)no2)C1`
Resp: 26.4 10^−6 cm/s

Req: Return reported MDCK-BCRP: Papp A-B; argument: `Cc1ccc(-c2noc(C3CN(C(=O)CO)C3)n2)cc1NC(=O)c1cnc2ccccn12`
Resp: 11.8 10^−6 cm/s

Req: Return reported MDCK-BCRP: Papp A-B; argument: `Cc1ccc(-c2noc([C@H](C)O)n2)cc1NC(=O)c1cnc2ccccn12`
Resp: 1.25 10^−6 cm/s

Req: Return reported MDCK-BCRP: Papp A-B; argument: `Cc1ccc(-c2noc(C3(C(F)F)CC(F)(F)C3)n2)cc1NC(=O)c1cnc2ccccn12`
Resp: 12.3 10^−6 cm/s

Req: Return reported MDCK-BCRP: Papp A-B; argument: `COC(=O)N1CC(c2nc(-c3ccc(Cl)c(NC(=O)c4cnc5ccccn45)c3)no2)C1`
Resp: 13 10^−6 cm/s

Req: Return reported MDCK-BCRP: Papp A-B; argument: Cc1ccc(-c2noc(C3CCC3F)n2)cc1NC(=O)c1cnc2ccccn12 (centres unmarked) [Compound I-400]
Resp: 11.7 10^−6 cm/s

Req: Return reported MDCK-BCRP: Papp A-B; argument: Cc1ccc(-c2noc(C3CCC(F)C3)n2)cc1NC(=O)c1cnc2ccccn12 (racemic) [Compound I-319]
Resp: 13.1 10^−6 cm/s

Req: Return reported MDCK-BCRP: Papp A-B; argument: `Cc1ccc(-c2cnc(N3CC(F)(F)C3)o2)cc1NC(=O)c1cnc2ccccn12`
Resp: 20.6 10^−6 cm/s

Req: Return reported MDCK-BCRP: Papp A-B; argument: Cc1ccc(-c2noc(C3CCC3F)n2)cc1NC(=O)c1cnc2ccccn12 (racemic) [Compound I-377]
Resp: 7.81 10^−6 cm/s

Req: Return reported MDCK-BCRP: Papp A-B; argument: `Cc1ccc(-c2noc(C34CC(F)(C3)C4)n2)cc1NC(=O)c1cnc2ccccn12`
Resp: 7.51 10^−6 cm/s

Req: Return reported MDCK-BCRP: Papp A-B; argument: Cc1ccc(-c2noc(C(C)NS(C)(=O)=O)n2)cc1NC(=O)c1cnc2ccccn12 (single isomer, unassigned) [Compound I-237]
Resp: 1.66 10^−6 cm/s

Req: Return reported MDCK-BCRP: Papp A-B; argument: Cc1ccc(-c2noc(C3CC(O)(C4(O)CCC4)C3)n2)cc1NC(=O)c1cnc2ccccn12 (centres unmarked)
Resp: 0.47 10^−6 cm/s

Req: Return reported MDCK-BCRP: Papp A-B; argument: `Cc1ccc(-c2noc(CC(C)(C)O)n2)cc1NC(=O)c1cnc2ccccn12`
Resp: 1.92 10^−6 cm/s

Req: Return reported MDCK-BCRP: Papp A-B; argument: `Cc1ccc(-c2noc(C3(O)CC(F)(F)C3)n2)cc1NC(=O)c1cnc2ccccn12`
Resp: 1.21 10^−6 cm/s

Req: Return reported MDCK-BCRP: Papp A-B; argument: `COC(=O)N1CC(c2nc(-c3ccc(C)c(NC(=O)c4cnc5cc(OC[C@@H](C)O)ccn45)c3)no2)C1`
Resp: 0.56 10^−6 cm/s

Req: Return reported MDCK-BCRP: Papp A-B; argument: `COCCOCc1ccn2c(C(=O)Nc3cc(-c4noc([C@H]5C[C@@H]5F)n4)ccc3C)cnc2c1`
Resp: 20.7 10^−6 cm/s

Req: Return reported MDCK-BCRP: Papp A-B; argument: `COC12CC(c3nc(-c4ccc(C)c(NC(=O)c5cnc6ccccn56)c4)no3)(C1)C2`
Resp: 15 10^−6 cm/s

Req: Return reported MDCK-BCRP: Papp A-B; argument: Cc1ccc(-c2noc(C3CC(OCCF)C3)n2)cc1NC(=O)c1cnc2ccccn12 (centres unmarked)
Resp: 8.93 10^−6 cm/s

Req: Return reported MDCK-BCRP: Papp A-B; argument: `COCCS(=O)(=O)N1CC(c2nc(-c3ccc(C)c(NC(=O)c4cnc5ccccn45)c3)no2)C1`
Resp: 3.11 10^−6 cm/s
